target: GABA-A receptor; anion channel; test: GPCRScan assay: inhibition of GABAA/BZP
PROPERTY: pKi
Answers are plain numbers, as −log10 of the molar value.

Kindly note the recorded pKi for CC1CCN(c2ccnc(NCc3cn(C)cn3)n2)CC1 , which is 6.29

====

biological target: 5-hydroxytryptamine receptor 2C (Homo sapiens, UniProt P28335); assay: GPCRScan assay: inhibition of 5-HT2C; set-up: radioligand conc. used [nm] 1.0 – 2.5, parental cells HEK T; settings: read-out: Ki
Sequence (P28335 whole entry): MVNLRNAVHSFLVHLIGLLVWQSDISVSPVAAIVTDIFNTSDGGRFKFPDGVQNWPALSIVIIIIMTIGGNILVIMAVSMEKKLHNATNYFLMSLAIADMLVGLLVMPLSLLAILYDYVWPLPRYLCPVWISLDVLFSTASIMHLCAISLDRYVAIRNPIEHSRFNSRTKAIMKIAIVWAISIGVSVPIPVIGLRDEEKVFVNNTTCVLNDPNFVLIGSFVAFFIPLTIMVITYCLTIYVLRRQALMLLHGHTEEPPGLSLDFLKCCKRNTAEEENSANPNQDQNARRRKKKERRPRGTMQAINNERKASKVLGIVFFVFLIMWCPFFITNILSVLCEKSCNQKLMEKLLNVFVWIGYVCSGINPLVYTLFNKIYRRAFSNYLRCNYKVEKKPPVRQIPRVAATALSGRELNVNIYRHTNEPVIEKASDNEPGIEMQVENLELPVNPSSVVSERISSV
PROPERTY: pKi
Answers are plain numbers, as −log10 of the molar value.

Items follow; give pKi for each.
1. CC1CCN(c2ccnc(NCc3cn(C)cn3)n2)CC1
2. CN1CCN(c2ccnc(NCCc3ccccc3)n2)CC1 [TP-040n]

Given back:
1: 6.43; 2: 6.57

====

target: 5-hydroxytryptamine receptor 6 (Homo sapiens)
Sequence (P50406 whole entry): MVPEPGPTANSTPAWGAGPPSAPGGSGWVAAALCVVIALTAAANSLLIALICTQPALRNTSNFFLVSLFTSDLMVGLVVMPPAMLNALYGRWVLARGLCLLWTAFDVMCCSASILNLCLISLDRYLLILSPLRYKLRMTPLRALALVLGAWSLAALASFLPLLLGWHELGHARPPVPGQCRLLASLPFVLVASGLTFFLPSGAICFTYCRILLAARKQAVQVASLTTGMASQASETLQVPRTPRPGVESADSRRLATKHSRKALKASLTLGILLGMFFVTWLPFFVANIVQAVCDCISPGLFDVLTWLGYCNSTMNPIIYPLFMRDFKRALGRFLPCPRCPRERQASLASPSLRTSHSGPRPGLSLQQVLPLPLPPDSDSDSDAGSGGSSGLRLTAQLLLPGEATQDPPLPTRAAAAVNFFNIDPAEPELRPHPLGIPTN
PROPERTY: Ki (nM)
Answers are plain numbers, in nM.

Kindly note the recorded Ki for CN1CCN(c2ccnc(NCCc3ccccc3)n2)CC1 [TP-040n] , which is 606

====

target: UniProtKB Q01959; assay: GPCRScan assay: inhibition of DAT; design: radioligand conc. used [nm] 3.6 – 16.0, parental cells stable HEK; details: read-out: Ki
Sequence (Q01959 whole entry): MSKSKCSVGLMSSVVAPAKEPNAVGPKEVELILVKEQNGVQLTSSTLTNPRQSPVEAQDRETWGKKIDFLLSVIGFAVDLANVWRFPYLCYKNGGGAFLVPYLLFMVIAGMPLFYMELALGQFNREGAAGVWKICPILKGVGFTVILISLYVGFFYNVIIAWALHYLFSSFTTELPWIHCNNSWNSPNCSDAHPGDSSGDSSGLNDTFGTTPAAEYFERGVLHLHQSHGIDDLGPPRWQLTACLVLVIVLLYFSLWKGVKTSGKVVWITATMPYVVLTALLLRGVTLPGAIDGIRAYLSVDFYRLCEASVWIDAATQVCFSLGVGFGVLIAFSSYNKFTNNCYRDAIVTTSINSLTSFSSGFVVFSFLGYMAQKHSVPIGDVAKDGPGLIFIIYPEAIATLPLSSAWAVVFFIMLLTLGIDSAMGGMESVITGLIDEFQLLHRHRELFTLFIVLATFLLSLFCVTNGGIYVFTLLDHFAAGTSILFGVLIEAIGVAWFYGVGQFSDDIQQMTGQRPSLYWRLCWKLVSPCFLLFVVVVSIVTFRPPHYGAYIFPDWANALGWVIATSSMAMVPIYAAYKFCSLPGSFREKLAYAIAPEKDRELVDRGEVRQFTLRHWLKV
PROPERTY: pKi
Give bare numbers, as −log10 of the molar value.

Kindly note the recorded pKi for CN1CCN(c2ccnc(NCCc3ccccc3)n2)CC1 [TP-040n] , which is 6.06

====

target: 5-hydroxytryptamine receptor 5A (Homo sapiens); test: GPCRScan assay: inhibition of 5-HT5A; set-up: radioligand conc. used [nm] 2.0 - 3.3, parental cells Flp-In CHO; settings: read-out: Ki
Sequence (P47898 whole entry): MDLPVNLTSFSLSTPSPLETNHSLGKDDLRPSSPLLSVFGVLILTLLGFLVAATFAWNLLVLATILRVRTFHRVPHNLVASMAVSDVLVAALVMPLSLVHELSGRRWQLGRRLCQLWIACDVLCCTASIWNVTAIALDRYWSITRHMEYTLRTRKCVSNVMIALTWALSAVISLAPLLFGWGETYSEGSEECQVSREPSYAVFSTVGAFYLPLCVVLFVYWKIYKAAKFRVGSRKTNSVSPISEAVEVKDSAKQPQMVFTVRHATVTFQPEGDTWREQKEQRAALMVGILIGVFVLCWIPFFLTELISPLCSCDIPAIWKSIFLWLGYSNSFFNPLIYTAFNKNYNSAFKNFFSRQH
PROPERTY: Ki
Just the number plus its unit, please.

Kindly note the recorded Ki for CN1CCN(c2ccnc(NCCc3ccccc3)n2)CC1 [TP-040n] , which is 6.13 µM
